Ref: patent US20220289830A1

Molecular target: recombinant Pseudomonas aeruginosa PcrV, full-length (PAO), His-tagged (Pseudomonas aeruginosa)
Experiment: ELISA, PcrV coated on the plate, goat anti-human Fc-AP detection
MEASURE NAME: EC50 (µg/mL)
Respond with the bare value in µg/mL.

Known EC50 results, listed for orientation:
{"BINDER": "4A10 (antibody, V domains shown, also called optimized anti-PcrV mAb clone 4A10) VH: EVQLLESGGGLVQPGGSLRLSCTASGFTFSSYPMSWVRQAPGKGLDWVSGISESGGSTNYADSVKGRFSTSRDNSKSTLYLDMNSLRAEDTAIYYCAKGRFSDASEHFFRAVYGMDVWGQGTAVTVSS VL: DIQLTQSPSSLSASVGDRVTITCRASQGISSYLAWYQQKPGKTPKLLIYAASTLQSGVPSRFSGSGSGTDFTLTISSLQPEDFATYYCQQLSSYPLTFGGGTKVEIK", "VALUE REPORTED": 0.113}
{"BINDER": "2B1 (antibody, V domains shown, also called optimized anti-PcrV mAb clone 2B1) VH: EVQLLESGGGLVQPGGSLRLSCTASGFTFSSYPMSWVRQAPGKGLDWVSGISESGGSTNYADSVKGRFSTSRDNSKSTLYLDMNSLRAEDTAIYYCAKGRFSGESHHFFRAVYGMDVWGQGTAVTVSS VL: DIQLTQSPSSLSASVGDRVTITCRASQGISSYLAWYQQKPGKAPKLLIYAASTLQSGVPSRFSGSGSGTDFTLTISSLQPEDFATYYCQQLSSYPLSFGGGTKVEIK", "VALUE REPORTED": 0.162}
{"BINDER": "6A10 (antibody, V domains shown, also called optimized anti-PcrV mAb clone 6A10) VH: EVQLLESGGGLVQPGGSLRLSCTASGFTFSDNHMSWVRQAPGKGLDWVSGISESGGSTNYADSVKGRFSTSRDNSKSTLYLDMNSLRAEDTAIYYCAKGRFSTSSSHFFRAVYGMDVWGQGTAVTVSS VL: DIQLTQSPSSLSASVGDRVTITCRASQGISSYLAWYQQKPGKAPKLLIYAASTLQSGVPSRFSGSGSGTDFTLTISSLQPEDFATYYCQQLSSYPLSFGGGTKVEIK", "VALUE REPORTED": 0.104}
{"BINDER": "5B3 (antibody, V domains shown, also called optimized anti-PcrV mAb clone 5B3) VH: EVQLLESGGGLVQPGGSLRLSCTASGFTFSDYPMSWVRQAPGKGLDWVSGISESGGSTNDADSVKGRFSTSRDNSKSTLYLDMNSLRAEDTAIYYCAKGRFSQDSYHFFRAVYGMDVWGQGTAVTVSS VL: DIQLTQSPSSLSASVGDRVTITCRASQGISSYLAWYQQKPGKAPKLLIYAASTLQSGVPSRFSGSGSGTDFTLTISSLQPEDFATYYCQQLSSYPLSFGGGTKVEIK", "VALUE REPORTED": 0.109}
{"BINDER": "3A9 (antibody, V domains shown, also called optimized anti-PcrV mAb clone 3A9) VH: EVQLLESGGGLVQPGGSLRLSCTASGFTFSDYSMSWVRQAPGKGLDWVSGISESGGSTNYADSVKGRFSTSRDNSKSTLYLDMNSLRAEDTAIYYCAKGRFSDSTKHFFRAVYGMDVWGQGTAVTVSS VL: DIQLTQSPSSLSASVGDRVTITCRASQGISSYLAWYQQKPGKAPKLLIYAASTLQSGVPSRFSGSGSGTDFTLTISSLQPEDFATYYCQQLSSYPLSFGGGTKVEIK", "VALUE REPORTED": 0.116}

q: Quick one: EC50 for 7B1 (antibody, V domains shown, also called 7B1-IgG1; 7B1 mAb) VH: EVQLLESGGGLVQPGGSLRLSCTASGFTFSDNYMSWVRQAPGKGLDWVSVISESGGSTNYADSVKGRFSTSRDNSKSTLYLDMNSLRAEDTAIYYCAKGRFSTLSSHFFRAVYGMDVWGQGTAVTVSS VL: DIQLTQSPSSLSASVGDRVTITCRASQGISSYLAWYQQKPGKAPKLLIYAASTLQSGVPSRFSGSGSGTDFTLTISSLQPEDFATYYCQQLSSYPLTFGGGTKVEIK ?
a: 0.125

q: Quick one: EC50 for 13-42 mAb (antibody, V domains shown) VH: EVQLLESGGGLVQPGGSLRLSCTASGFTFSDYPMSWVRQAPGKGLDWVSGISESGGSTNDADSVKGRFSTSRDNSKSTLYLDMNSLRAEDTAIYYCAKGRFCTNSSCFFRAVYGMDVWGQGTAVTVSS VL: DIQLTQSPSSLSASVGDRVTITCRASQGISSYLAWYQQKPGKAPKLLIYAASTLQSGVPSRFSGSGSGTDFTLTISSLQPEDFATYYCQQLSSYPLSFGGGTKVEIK ?
a: 0.132

q: Quick one: EC50 for 8C1 (antibody, V domains shown, also called optimized anti-PcrV mAb clone 8C1) VH: EVQLLESGGGLVQPGGSLRLSCTASGFTFSDNHMSWVRQAPGKGLDWVSGISESGGSTNYADSVKGRFSTSRDNSKSTLYLDMNSLRAEDTAIYYCAKGRFSTNSAHFFRAVYGMDVWGQGTAVTVSS VL: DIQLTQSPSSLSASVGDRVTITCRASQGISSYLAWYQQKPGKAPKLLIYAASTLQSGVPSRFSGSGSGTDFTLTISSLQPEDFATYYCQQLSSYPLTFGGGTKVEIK ?
a: 0.111

q: Quick one: EC50 for 3H10 (antibody, V domains shown, also called optimized anti-PcrV mAb clone 3H10) VH: EVQLLESGGGLVQPGGSLRLSCTASGFTFSDYPMSWVRQAPGKGLDWVSGISESGGSTNDADSVKGRFSTSRDNSKSTLYLDMNSLRAEDTAIYYCAKGRFSDYSQHFFRAVYGMDVWGQGTAVTVSS VL: DIQLTQSPSSLSASVGDRVTITCRASQGISSYLAWYQQKPGKAPKLLIYAASTLQSGVPSRFSGSGSGTDFTLTISSLQPEDFATYYCQQLNSYPLTFGGGTKVEIK ?
a: 0.149

q: Quick one: EC50 for 7C1 (antibody, V domains shown, also called optimized anti-PcrV mAb clone 7C1) VH: EVQLLESGGGLVQPGGSLRLSCTASGFTFSDNHMSWVRQAPGKGLDWVSGISESGGSTNYADSVKGRFSTSRDNSKSTLYLDMNSLRAEDTAIYYCAKGRFSTSSSHFYRAVYGMDVWGQGTAVTVSS VL: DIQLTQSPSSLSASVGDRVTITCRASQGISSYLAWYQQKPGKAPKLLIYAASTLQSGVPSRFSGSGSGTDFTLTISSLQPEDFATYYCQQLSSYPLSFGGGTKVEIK ?
a: 0.134
